Form field: TGI (one value per entry).
- protocol_summary: Cytotoxicity against human NSCLC cells after 48 hrs
- Format: functional
measured_endpoint: TGI

smiles_code=COc1cc(/C=C2/C(=O)Nc3cc(C)c(O)cc32)cc(OC)c1OC result="31.6 µM"
smiles_code=COc1ccc(CN2C(=O)/C(=C/c3cc(OC)c(OC)c(OC)c3)c3cc(OC)ccc32)cc1 result="11.2 µM"
smiles_code=COc1cc(/C=C2/C(=O)N(C)c3ccc(O)cc32)cc(OC)c1OC result="24.6 µM"
smiles_code=COc1cc(/C=C2\C(=O)N(C)c3ccc(Cl)cc32)cc(OC)c1OC result="28.2 µM"
smiles_code=COc1cc(/C=C2\C(=O)Nc3ccc(N(C)C)cc32)cc(OC)c1OC result="41.7 µM"
smiles_code=COc1cc(/C=C2\C(=O)Nc3cc(OC(F)(F)F)ccc32)cc(OC)c1OC result="14.1 µM"
smiles_code=COc1cc(/C=C2\C(=O)N(Cc3ccc(Cl)cc3)c3ccccc32)cc(OC)c1OC result="14.4 µM"
smiles_code=COc1cc(/C=C2\C(=O)Nc3ccc(Br)cc32)cc(OC)c1OC result="77.6 µM"
smiles_code=COc1ccc(OC)c2c1NC(=O)/C2=C\c1cc(OC)c(OC)c(OC)c1 result="25.1 µM"
smiles_code=COc1ccc2c(c1)/C(=C\c1cc(OC)c(OC)c(OC)c1)C(=O)N2C result="46.8 µM"
